Biological target: HCV NS5B (Hepatitis C virus genotype 1b, UniProt Q9WMX2)
Construct: The protein was expressed with an 18 amino acid C-terminal truncation to enhance the solubility; made in house; host or cells: E. coli BL21(DE3)
Sequence (Q9WMX2 2420-2992): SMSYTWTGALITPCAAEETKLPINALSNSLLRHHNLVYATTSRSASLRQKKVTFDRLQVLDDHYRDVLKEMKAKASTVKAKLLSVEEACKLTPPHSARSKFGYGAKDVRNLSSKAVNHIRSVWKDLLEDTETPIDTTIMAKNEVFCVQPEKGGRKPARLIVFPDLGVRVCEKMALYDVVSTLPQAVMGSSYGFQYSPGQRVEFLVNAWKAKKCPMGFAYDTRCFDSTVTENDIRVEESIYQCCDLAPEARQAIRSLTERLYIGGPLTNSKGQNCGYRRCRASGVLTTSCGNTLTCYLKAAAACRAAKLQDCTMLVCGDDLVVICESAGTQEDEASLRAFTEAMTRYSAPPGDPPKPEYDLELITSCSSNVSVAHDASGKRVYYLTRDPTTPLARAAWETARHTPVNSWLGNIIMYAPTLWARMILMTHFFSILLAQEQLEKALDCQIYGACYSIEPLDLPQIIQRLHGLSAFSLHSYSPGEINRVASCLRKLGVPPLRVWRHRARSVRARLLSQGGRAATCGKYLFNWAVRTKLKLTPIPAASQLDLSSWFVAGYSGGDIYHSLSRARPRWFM
Test: HCV NS5B RdRp enzyme assay (standard / modified)
Type: biochemical
Conditions: HCV RdRp genotype 1b; standard or modified assay not specified; read-out: IC50
MEASURED_PROPERTY: IC50

Recorded IC50, per entry:
INSERT INTO measurements (molecule, result) VALUES
  ('COc1ccc2c(c1)C1CC1(C(=O)N1C[C@@H]3C[C@H]1CN3C)Cn1c-2c(C2CCCCC2)c2ccc(C(=O)NS(C)(=O)=O)cc21 (stereo partly drawn)', '2.4 to 500 nM'),
  ('COc1ccc2c(c1)[C@@H]1C[C@]1(C(=O)N1C[C@@H]3C[C@H]1CN3C(=O)OC(C)(C)C)Cn1c-2c(C2CCCCC2)c2ccc(C(=O)NS(=O)(=O)N(C)C)cc21', '2.4 to 500 nM'),
  ('COc1ccc2c(c1)C1CC1(C(=O)N1C3CCCC1CN(C)C3)Cn1c-2c(C2CCCCC2)c2ccc(C(=O)NS(=O)(=O)N3CCOCC3)cc21 (stereo not drawn)', '2.4 to 500 nM'),
  ('COc1ccc2c(c1)C1CC1(C(=O)N1C3CC1CN(Cc1ccccc1)C3)Cn1c-2c(C2CCCCC2)c2ccc(C(=O)NS(=O)(=O)C3CCCCC3)cc21 (stereo not drawn)', '2.4 to 500 nM'),
  ('CCN1C[C@H]2C[C@@H]1CN2C(=O)C12CC1c1cc(OC)ccc1-c1c(C3CCCCC3)c3ccc(C(=O)NS(C)(=O)=O)cc3n1C2 (stereo partly drawn)', '2.4 to 500 nM');

Next molecule, please.
Name the reported IC50 value associated with the molecule COc1ccc2c(c1)C1CC1(C(=O)N1C[C@@H]3C[C@H]1CN3CC(C)C)Cn1c-2c(C2CCCCC2)c2ccc(C(=O)NS(=O)(=O)C(C)C)cc21 (stereo partly drawn) [drawing 94]
2.4 to 500 nM
